# Assay summary: Cmax in Sprague-Dawley rat at 50 mg/kg, po measured upto 24 hrs by LC/MS-MS analysis
# Assay type: ADME, organism-based
# Measurement parameters: in vivo
Reported property: Cmax (ng/mL)
Field: numeric (ng/mL). Do not append units.

Exercise: Report measured Cmax; entry is CC1(C)CCOC(=O)[C@@H]2C[C@@H](C[C@@H](C#N)NC(=O)[C@@H]3[C@@H]4[C@H](CN3C(=O)[C@H]1NC(=O)C(F)(F)F)C4(C)C)C(=O)N2
Key: 102

* * *

# Assay summary: Metabolic stability in human liver microsomes assessed as half life measured upto 60 mins in presence of NADPH by LC/MS-MS analysis
# Assay type: ADME, Microsome
Reported property: log10(half-life) (log10 of the value in h)
All values: log10 half-life [h].

The following compounds have reported results that may help.
{"Item smiles": "CC1(C)COC(=O)[C@@H]2C[C@@H](C[C@@H](C#N)NC(=O)[C@@H]3[C@@H]4[C@H](CN3C(=O)[C@H]1NC(=O)CC1CC1)C4(C)C)C(=O)N2", "log10(half-life)": 0.11}
{"Item smiles": "CC1(C)COC(=O)[C@@H]2C[C@@H](C[C@@H](C#N)NC(=O)[C@@H]3[C@@H]4[C@H](CN3C(=O)[C@H]1NC(=O)C1CC1)C4(C)C)C(=O)N2", "log10(half-life)": 0.41}

Exercise: Please supply the value of reported log10(half-life) for the item COC(=O)N[C@@H]1C(=O)N2C[C@H]3[C@@H]([C@H]2C(=O)N[C@H](C#N)C[C@@H]2C[C@@H](CCCCC1(C)C)NC2=O)C3(C)C
Key: -0.63

Exercise: Determine from records and report log10(half-life) for CC1(C)CNC(=O)[C@@H]2C[C@@H](C[C@@H](C#N)NC(=O)[C@@H]3[C@@H]4[C@H](CN3C(=O)[C@H]1NC(=O)OCc1ccccc1)C4(C)C)C(=O)N2
Key: -1.14

Exercise: # return recorded log10(half-life) for entry CC1(C)COC(=O)[C@@H]2C[C@@H](C[C@@H](C#N)NC(=O)[C@@H]3[C@@H]4[C@H](CN3C(=O)[C@H]1NC(=O)C(F)(F)C1CC1)C4(C)C)C(=O)N2
Key: 0.07

Exercise: Please give the documented log10(half-life) of Cc1cccc(C)c1OCC(=O)N[C@@H]1C(=O)N2C[C@H]3[C@@H]([C@H]2C(=O)N[C@H](C#N)C[C@@H]2C[C@H](NC2=O)C(=O)NCC1(C)C)C3(C)C
Key: -1.18

Values compiled from ChEMBL document CHEMBL6071136.
